Settings: buffer; pH 7.4; 200.0 µM
Listed next: entries and their corresponding solubility kinetic.

Please fill in: solubility kinetic reported for COc1nc(Nc2ccccc2)nc(OC)n1 = > 34.8 µg/mL

Lab book: solubility kinetic of Cc1ccc(C(=O)COC(=O)CCNS(=O)(=O)c2ccccc2F)cc1 noted as > 56.9 µg/mL

Field solubility kinetic (entry O=C(Nc1ccccc1C(=O)Nc1ccccc1)c1ccccc1F ) reads < 0.4 µg/mL

----------
Listed here: items and their measured log10 of solubility kinetic.
Details: buffer; pH 7.4; 200.0 µM
Scale type: logarithmic (base 10). Underlying solubility kinetic unit: µg/mL.

For orientation, consider the following solved cases.
log10 of solubility kinetic reported for this compound COc1ccc(NC(=S)Nc2cccc3cnccc23)cc1 : 1.00

log10 of solubility kinetic in this record for CN1CCC(O)(c2cccs2)C(C(=O)c2cccs2)C1 (configuration not stated) : 1.62

Lab note: measured log10 of solubility kinetic of CCC(=O)c1ccc(OC(C)C(=O)NC2(C#N)CCCCC2)cc1 (configuration not stated) was 1.40

GET /value?item= COCc1cc(C)nc(SCc2ccc([N+](=O)[O-])cc2)c1C#N &field=log10 of solubility kinetic returns 0.72

# log10 of solubility kinetic of CCOC(CNc1ncnc2sc(-c3ccccc3)cc12)OCC = 1.27

Continuing:
Noted for CCOc1ccccc1C(=O)Nc1c[nH]c(=O)[nH]c1=O : its log10 of solubility kinetic reads 0.38

The recorded log10 of solubility kinetic for COc1ccc(CNC(=O)C2CCN(C(=O)c3ccco3)CC2)cc1 is 1.66

Lab note: measured log10 of solubility kinetic of O=C(COC(=O)CNC(=O)c1ccc(Cl)cc1)Nc1ccc(Cl)cn1 was 0.51

Data point: COCCNC(=O)Cn1cc(C(=O)c2ccccc2F)c2ccccc21 ; log10 of solubility kinetic = 1.25

log10 of solubility kinetic recorded for this compound, Cc1ccc(NC(=O)CNCc2ccccc2)c(Br)c1 , is 1.54

Lab book: log10 of solubility kinetic of COc1ccc(N2C(=O)c3ccccc3NC2(C)C)cc1 noted as 0.92

log10 of solubility kinetic in this record for COc1ccc(CC(=O)Nc2ccc(N3CCCC3)c(C)c2)cc1 : 0.95

Documented log10 of solubility kinetic of O=C(Nc1cnccc1C(F)(F)F)NC1CCCCC1 : 1.63

Just so you know, measured log10 of solubility kinetic for COc1ccc(C(C)(C)C)cc1NC(=O)C1=CC=CN2CCS(=O)(=O)N=C12 came out at 0.23

The recorded log10 of solubility kinetic for entry CC1CCCN(c2ccc(C(=O)Nc3cccnc3)cc2[N+](=O)[O-])C1 (configuration not stated) equals 1.20

----------
Details: buffer; pH 7.4; 200.0 µM
Assay readout: solubility kinetic

Lab note: measured solubility kinetic of CCC(C(=O)NC1CCN(C)CC1)c1ccccc1 (configuration not stated) was > 39.1 µg/mL

The molecule identified as Br.CCCCCCCCCCn1ccc(=N)cc1 registered its solubility kinetic at > 47.3 µg/mL

---
solubility kinetic reading for CN1CCN(C(=S)C(=O)NCc2ccccc2)CC1 : > 41.6 µg/mL

GET /value?item= O=C(CN1CCN(C(=O)c2ccccc2)CC1)NC(=O)NCCC1=CCCCC1 &field=solubility kinetic returns > 59.8 µg/mL

The reported solubility kinetic of the molecule CCC1CCCCN1C(=O)c1cc(S(=O)(=O)N2CCOCC2)ccc1C (configuration not stated) was > 57.1 µg/mL

The molecule listed as COc1ccc(CCNC(=O)Oc2ccccc2)cc1OC shows solubility kinetic equal to 42.9 µg/mL

molecule O=C(CCS(=O)(=O)c1ccccc1)Nc1nncs1 , solubility kinetic observed: > 44.6 µg/mL

get_value(item= COc1ccc(-c2nnc(SCC(=O)NC3CC3)o2)cc1 , readout=solubility kinetic) returns > 45.8 µg/mL

Quick note, solubility kinetic for O=C(NC(=S)NCCO)c1sc2ccccc2c1Cl landed at 1.8 µg/mL
